molecular target: HLA-C*14:02; assay: IEDB peptide-MHC binding, purified MHC/competitive/fluorescence; filed as Kd, often an IC50 or EC50 that approximates it; bounds were set here for any values at or beyond the usual limits of such assays; conditions: source organism: Bacillus anthracis str. A2012
OUTCOME_MEASURE: pKd
Please treat pKd as minus the base-10 logarithm of the molar concentration.

Give its pKd value. Item: "WMYYPRSPV" 8.17

---

Quick list: pKd per entry.
biological target: HLA-B*35:01; assay: IEDB peptide-MHC binding, purified MHC/competitive/radioactivity; filed as Kd, often an IC50 or EC50 that approximates it; bounds were set here for any values at or beyond the usual limits of such assays; settings: source organism: Dengue virus 1 Brazil/97-11/1997
Please treat pKd as minus the base-10 logarithm of the molar concentration.

| ENTRY_SEQUENCE | NUMERIC_RESULT |
| --- | --- |
| TPQDNQLAY | 7.99 |

Give its pKd value. Item: "LPLPWTSGAS" 6.03

---

Quick list: Kd per entry.
target: HLA-B*27:05; test: IEDB peptide-MHC binding, purified MHC/direct/fluorescence; filed as Kd, often an IC50 or EC50 that approximates it; bounds were set here for any values at or beyond the usual limits of such assays; details: source organism: Escherichia coli O157:H7

The examples below pair each entry with its known result.
| ENTRY_SEQUENCE | Kd |
| --- | --- |
| PLKVKDIPF | ≥ 20 µM |
| AHGWSTFYL | ≥ 20 µM |

Give its Kd value. Item: "LPEFERRTL" ≥ 20 µM

---

molecular target: HLA-B*44:03; experiment: IEDB peptide-MHC binding, purified MHC/competitive/radioactivity; filed as Kd, often an IC50 or EC50 that approximates it; bounds were set here for any values at or beyond the usual limits of such assays; settings: source organism: Dengue virus 1 Singapore/S275/1990
OUTCOME_MEASURE: Kd (µM)
Respond with the bare value in µM.

Give its Kd value. Item: "SEGIFSPSEL" 0.0775

---

biological target: HLA-B*57:01; assay: IEDB peptide-MHC binding, purified MHC/direct/fluorescence; filed as Kd, often an IC50 or EC50 that approximates it; bounds were set here for any values at or beyond the usual limits of such assays; details: source organism: Giardia lamblia ATCC 50803
OUTCOME_MEASURE: Kd

Give its Kd value. Item: "VAAKGAPAL" ≥ 20 µM

---

molecular target: HLA-A*32:01; test: IEDB peptide-MHC binding, purified MHC/competitive/radioactivity; filed as Kd, often an IC50 or EC50 that approximates it; bounds were set here for any values at or beyond the usual limits of such assays; conditions: source organism: Vaccinia virus WR
OUTCOME_MEASURE: pKd
Please treat pKd as minus the base-10 logarithm of the molar concentration.

| ENTRY_SEQUENCE | pKd |
| --- | --- |
| ITYPKALVF | 8.52 |
| SMFTLRHII | 7.08 |
| HINKLFSVF | 6.04 |
| KLFNIAQRI | 8.80 |
| KVKDLFNTK | 5.61 |

Give its pKd value. Item: "SLSAVSVHI" 7.47

Give its pKd value. Item: "KKYNNDKSF" 4.94

Give its pKd value. Item: "AILSLNLRI" 6.82
